Origin of the recorded values: PubChem BioAssay (NCI)

# System: CCRF-CEM leukemia
# ASSAY METHOD TEXT: NCI tumour cell line growth inhibition, 48 h
In this section we review reported TGI values for a set of compounds.

>  <COMPOUND STRUCTURE STRING>
COc1ccc2c(c1)[n+]([O-])c(-c1c(Cl)cccc1Cl)c(N)[n+]2[O-]

>  <TGI>
> 100 µM

$$$$
>  <COMPOUND STRUCTURE STRING>
O=C1Nc2ccccc2/C1=C/C(=N/c1nnc(-c2ccccc2)s1)c1ccccc1

>  <TGI>
4.72 µM

$$$$
>  <COMPOUND STRUCTURE STRING>
N#CCCN(CCCN(C(=O)N(c1ccccc1)c1ccccc1)c1ccccc1)C(=O)Nc1ccccc1

>  <TGI>
83.6 µM

$$$$
>  <COMPOUND STRUCTURE STRING>
COc1cc2cccc(N=Cc3ccccc3Cl)c2cc1OC

>  <TGI>
> 100 µM

$$$$

---

# Test system: SR leukemia
# ASSAY METHOD TEXT: NCI tumour cell line growth inhibition, 48 h; in the data active = GI50 below about 0.43 µM; inactive = the rest
Outcomes: YES (active), NO (inactive)

>  <COMPOUND>
N#Cc1c(-c2ccccc2)cc(-c2ccccc2)n(CC(=O)NO)c1=O

>  <SYSTEM TESTED>
SR leukemia

>  <CLASS>
NO

$$$$
>  <COMPOUND>
O=C1Nc2ccccc2/C1=C/C(=N/c1nnc(-c2ccccc2)s1)c1ccccc1

>  <SYSTEM TESTED>
SR leukemia

>  <CLASS>
NO

$$$$
>  <COMPOUND>
CS(=O)(=O)Nc1cc(-c2ccc3ncnc(Nc4ccc5c(cnn5Cc5cccc(F)c5)c4)c3c2)cnc1Cl

>  <SYSTEM TESTED>
SR leukemia

>  <CLASS>
NO

$$$$
>  <COMPOUND>
O=C1/C(=C/c2ccc(Cl)cc2)COc2ccc(O)cc21

>  <SYSTEM TESTED>
SR leukemia

>  <CLASS>
NO

$$$$
>  <COMPOUND>
CCN1CCC(Oc2c(C#N)ncc3[nH]c4ncccc4c23)CC1

>  <SYSTEM TESTED>
SR leukemia

>  <CLASS>
NO

$$$$
>  <COMPOUND>
COCC(=O)Oc1cc(-c2ccc(C)cc2C)c(OC(=O)COC)c(-c2ccc(C)cc2C)c1

>  <SYSTEM TESTED>
SR leukemia

>  <CLASS>
NO

$$$$
>  <COMPOUND>
C=C(C)C(=O)Oc1ccc(N=Nc2ccc(C)cc2)ccc1=O

>  <SYSTEM TESTED>
SR leukemia

>  <CLASS>
NO

$$$$
>  <COMPOUND>
NS(=O)(=O)N(c1cc(C(F)(F)F)cc(C(F)(F)F)c1)C1CCN(Cc2ccc(F)cc2)CC1

>  <SYSTEM TESTED>
SR leukemia

>  <CLASS>
NO

$$$$
>  <COMPOUND>
Cc1cc2c([nH]1)CSc1cc(S(=O)(=O)c3ccccc3)c(=O)[nH]c1-2

>  <SYSTEM TESTED>
SR leukemia

>  <CLASS>
YES

$$$$
>  <COMPOUND>
CCN(Cc1ccncc1)c1ccc(CO)c(Cl)c1

>  <SYSTEM TESTED>
SR leukemia

>  <CLASS>
NO

$$$$
>  <COMPOUND>
COc1ccc(C2CC(c3cc(Cl)c(C)cc3O)=NN2c2ccc(S(N)(=O)=O)cc2)cc1OC (stereo unspecified)

>  <SYSTEM TESTED>
SR leukemia

>  <CLASS>
NO

$$$$
>  <COMPOUND>
NCCOc1ncccc1/C=C1\c2ccccc2-c2ccc(F)cc21

>  <SYSTEM TESTED>
SR leukemia

>  <CLASS>
YES

$$$$
>  <COMPOUND>
CC(C)(C)c1ccc(C(=O)Nc2sc3c(c2C#N)CCC(=O)C3)cc1

>  <SYSTEM TESTED>
SR leukemia

>  <CLASS>
YES

$$$$
>  <COMPOUND>
Cn1ncc2c(Sc3ccc(Cl)cc3)ncnc21

>  <SYSTEM TESTED>
SR leukemia

>  <CLASS>
NO

$$$$
>  <COMPOUND>
COc1cc(C2=NNC(c3ccc(N(C)C)cc3)C2)cc(OC)c1OC (stereo unspecified)

>  <SYSTEM TESTED>
SR leukemia

>  <CLASS>
YES

$$$$
>  <COMPOUND>
COc1cc(-c2n[nH]nc2-c2ccc3c(c2)OCCO3)cc(OC)c1OC

>  <SYSTEM TESTED>
SR leukemia

>  <CLASS>
YES

$$$$
